B1: MATN2 (parent)
chain: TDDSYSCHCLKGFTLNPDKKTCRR

variants of: B1; assay: protein stability index of a GFP-peptide fusion (GPS, HEK-293T) (PSI 1-6); higher = more stable; conditions: c terminus: a fixed tail appended;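 further: lentivirally expressed fusions sorted by FACS into six bins by GFP to DsRed ratio, PSI derived from sequencing read proportions per bin multiplied by bin number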
observedProperty: protein stability index
Please give the numeric answer without any surrounding text.

Known protein stability index results, listed for orientation:
# sequenceCode, measuredNumber
data = [
    ("TDDSYSCHCLKGFTLNPQKKTCRR [D18Q]", 1.97),
    ("TDDSYSCICLKGFTLNPDKKTCRR [H8I]", 2.27),
    ("TDDSRSCHCLKGFTLNPDKKTCRR [Y5R]", 2),
    ("TDDSYSCHCLKGFTLAPDKKTCRR [N16A]", 2.68),
]

Item under review: TDDSYSCHCLPGFTLNPDKKTCRR [K11P] . Reported protein stability index?
2.36

What about TDDSYYCHCLKGFTLNPDKKTCRR [S6Y] ?
2.12

Same for TDDSYSCHCLKGFTLNPDKKKCRR [T21K]
2.06

Try this variant next: TDDSYSCHCLKGFTGNPDKKTCRR [L15G]
1.74

Check TDDSYSLHCLKGFTLNPDKKTCRR [C7L] too.
4.59

One more variant: TDDSISCHCLKGFTLNPDKKTCRR [Y5I]
2.06

Ok, now TDDSYSCHCLKGFTLNPDKKMCRR [T21M]
2.57

Now the same for TDDSYDCHCLKGFTLNPDKKTCRR [S6D]
2.94

Quick one: TDDSYSCHCLKGFTLNNDKKTCRR [P17N]
2.28

Same thing, different variant: TDDSYSCHCLKGFTLNPDKITCRR [K20I]
2.1

Now this one: TPDSYSCHCLKGFTLNPDKKTCRR [D2P]
1.66

Repeat for the following variant: TDDSYSCHCLKGFTLNPKKKTCRR [D18K]
2.86

Same thing, different variant: TDDSYSAHCLKGFTLNPDKKTCRR [C7A]
4.59

Entry TDDSYSCHCLKGFTLNPDKKFCRR [T21F] please
1.57

And what about the variant TDDSYSCHMLKGFTLNPDKKTCRR [C9M] ?
3.96

Please answer likewise for TDDSYSCHYLKGFTLNPDKKTCRR [C9Y]
3.88

What about this variant? TDDSYSCTCLKGFTLNPDKKTCRR [H8T]
2.08

Another: TDDSYSCHCLKGFYLNPDKKTCRR [T14Y]
1.6

Request: TDDSYQCHCLKGFTLNPDKKTCRR [S6Q]
1.76

Now consider TDDSYSCHCLKGFLLNPDKKTCRR [T14L] .
2.01

Can you check TDDSYSCHCLKGFTLNPDKKCCRR [T21C] next?
2.75
